EXPERIMENTAL_SYSTEM: CD28 (Homo sapiens, UniProt P10747)
ASSAY: Jurkat/IL2 + K562/OKT3/PD-L1 reporter assay
Format: cell-based
Parameters: host or cells: Jurkat cells expressing an IL-2-luciferase reporter
RUN_CONDITIONS: Table E8; K562/OKT3/PD-L1 aAPC; 50 nM
MEASUREMENT_TYPE: Relative Luciferase Units (RLU), CD80-Fe Cone 50 nM
Give bare numbers, in RLU.

{"MOLECULE": "H18Y/A26E/E35D/M47L/L85Q/D90G (protein, UniProt P33681 35-288, looked up, variant H18Y A26E E35D M47L L85Q D90G) T-lymphocyte activation …: VIHVTKEVKEVATLSCGYNVSVEELEQTRIYWQKDKKMVLTMMSGDLNIWPEYKNRTIFDITNNLSIVILALRPSDEGTYECVVQKYEKGAFKREHLAEVTLSVKADFPTPSISDFEIPTSNIRRIICSTSGGFPEPHLSWLENGEELNAINTTVSQDPETELYAVSSKLDFNMTTNHSFMCLIKYGHLRVNQTFNWNTTKQEHFPDNLLPSWAITLISVNGIFVICCLTYCFAPRCRERRRNERLRRESVRPV", "ASSAY_RESULT": 1506}

Then this molecule:
Enquiry: Determine its reported Relative Luciferase Units (RLU), CD80-Fe Cone 50 nM: E35D/D46E/M47V/A71D (protein, UniProt P33681 35-288, looked up, variant E35D D46E M47V A71D) T-lymphocyte activation …: VIHVTKEVKEVATLSCGHNVSVEELAQTRIYWQKDKKMVLTMMSGEVNIWPEYKNRTIFDITNNLSIVILDLRPSDEGTYECVVLKYEKDAFKREHLAEVTLSVKADFPTPSISDFEIPTSNIRRIICSTSGGFPEPHLSWLENGEELNAINTTVSQDPETELYAVSSKLDFNMTTNHSFMCLIKYGHLRVNQTFNWNTTKQEHFPDNLLPSWAITLISVNGIFVICCLTYCFAPRCRERRRNERLRRESVRPV
Return: 683
